Values compiled from the supplement of paper PMC9170038.

System: MS2 coat protein
test.summary: apparent KD of MS2 coat protein; designed switch direction (-1 OFF switch, 1 ON switch): -1; higher = weaker reporter binding
test.context: input ligand: none
value.type: apparent KD of MS2 coat protein (nM)
Only the number, expressed in nM, is required.

{"residue.string": "UACUGGACAGGAUAUGUUCUUGAGCACUUGAGGAUCACCCAAGUCAUCAAGAACUCAGGCACAGAAGGGUUUAUGU [salish99_ex5_r4_005] (Eterna round: R97, puzzle: Exclusion 5)", "apparent KD of MS2 coat protein [nM]": 18.5}

Here is another sequence to look at.
For MS2 coat protein, provide apparent KD of MS2 coat protein of CACCCUGAUGACAAAUUACAUGAGGAUCACCCAUGUGCCUCGCAGGAUAUCCCAGCACGUCGCAAGGAGAAGGGCGACGCGCCA [Ralerira] (Eterna round: R96, puzzle: Exclusion NG 3) please.
41.3

* * *

Measured apparent KD of MS2 coat protein values are reported for all entries that follow.
Test system: MS2 coat protein
test.summary: apparent KD of MS2 coat protein; higher = weaker reporter binding
test.context: Eterna round: R107; input ligand: theophylline 2 mM
Only the number, expressed in nM, is required.

Answered examples (4):
{"residue.string": "AGUCUUGUAGGAAGGAGCGCAUACUUCACAUGAGGAUCACCCAUGUCAAGACGUGAGUCAGUGCAGGUAGGUCGCCUAACUAAGA [Same State - Arginine B (Freestyle 14)]", "value.type": "apparent KD of MS2 coat protein", "recorded.value": 26.3}
{"residue.string": "GCUGUACCAUGAAGGAGCGUCGUUGAUUGAGAAUACACAUGAGGAUCACCCAUGUUUUUAUGACAGGUAGGUCGCAUGGUACAGC [SSAB #16]", "value.type": "apparent KD of MS2 coat protein", "recorded.value": 18.9}
{"residue.string": "AACUGGAUCAGUGAUACCAGAGACAUGAGGAUCACCCAUGUACAUGAGGAUCACCCAUGUCUCCCUUGGCAGCACAGCAGGGAGC [Exclusion Theophylline B GF 17]", "value.type": "apparent KD of MS2 coat protein", "recorded.value": 442}
{"residue.string": "AAGAAGUUUUGAUUUUUAUGAAGUAGUGAUACCAGUUAAGAAAGAGACCCUUGGCAGCGCAACAUGAGGAUCACCCAUGUAAGAA [Another radom design]", "value.type": "apparent KD of MS2 coat protein", "recorded.value": 19.7}

// lookup apparent KD of MS2 coat protein for GGAUGAAACUGAAGGAGCGAGAUCACAAGAUUGGGUCUAACAUGAGGAUCACCCAUGUAAUCUCAGGUAGGUCGCAGUGUCCCUU [Exclusion Arginine B GF 12]
43.5

And for UUAUGCAGGUCGGCCGCCACUACACACAUGAGGAUCACCCAUGUAGUUACUGGGUGAAGUGGCAGUAGGACCGGGACCUGCACAC [Brourdmod14] ?
823

And for AUACAUGAGGAUCACCCAUGUUACACUGAAGGAGCGACAUGUUUGUCAGGUAGGUCGCAGUGAAGUUUAAUAAAUAGUUGAUCUU [#07 Same State - Arginine A] ?
62.6

And for GGGCAAGAGGGAAGGAGCGUUAGCUGAGUCACAUGAGGAUCACCCAUGUCGCACGUAGUAUGACAGGUAGGUCGCCCUCUACCCU [SS-ArgB15] ?
21.6

And for GCUUGGGUGGCACAGCACUGGCAGUGCGAUACCAGCACGGUAACGUGCCCUUGGCAGCGCACAUGAGGAUCACCCAUGUGGUGCG [#1 Exclusion - Theophylline A Attempt #26 (HarryS)] ?
275

And for GUGCCGCAUUCACAUGAGGAUCACCCAUGUCGAGGACCGGUACGGCCGCCACUCGACGUGCUUACAGGUCCUUUAAGGCCCAAUA [Usislaan] ?
221

And for ACAUGAGGAUCACCCAUGUAAAUAACGGAAGGAGCGUGCAAAAGCACAGGUAGGUCGCCGAUAUAAAUAUUGGGUAUUAUAUUUU [AstrosExyArgA#3] ?
31.7

And for CUAUAAGUACCGGUCCUCAGAUCCUCAUGACGAGGACCGGUACGGCCGCCACUCGAAACAUGAGGAUCACCCAUGUAAUAAUACC [Brourdmod16] ?
62.6

* * *

System: MS2 coat protein
test.summary: apparent KD of MS2 coat protein; designed switch direction (-1 OFF switch, 1 ON switch): -1; higher = weaker reporter binding
test.context: input ligand: microRNA oligo, concentration not stated
Measured apparent KD of MS2 coat protein values are reported for all entries that follow.
Only the number, expressed in nM, is required.

// lookup apparent KD of MS2 coat protein for GUCAGCUCGUCAGGAUAUGCACAUGAGGAUCACCCAUGUAAGAUCAAGCUGCUUCGGCAGCAAGUGCAGAAGGGACGAGCUGAC [ENG2/9-B1] (Eterna round: R96, puzzle: Exclusion NG 2)
229

And for UUAUUAUAUGUAGGAUAUGCGUAUUGUUGUUAUGCAGAAGGACAUGAGGAUCACCCAUGUAUAUUAUUGUUAUAUAUUAUAUAU [Title] (Eterna round: R96, puzzle: Exclusion NG 1) ?
20.2

And for AUUGUUUAUGUAGGAUAUGCCUGGCGUGCCUUUGCAGAAGGACAUGAGGAUCACCCAUGUAUUGCGGUCUGCGUUCAGAUCGCG [salish99_ExNG1_r4_034] (Eterna round: R96, puzzle: Exclusion NG 1) ?
22.5

And for ACAUGUCAUCGAGGAUAUUGGACACAUGAGGAUCACCCAUGUACUCGGAGGCUCUACCAUGAGUUCGAGAAGGCGAUGUACAUU [Ex NG2 #77] (Eterna round: R96, puzzle: Exclusion NG 2) ?
256

And for CCGCUCCGUGUAGGAUAUUGGCGUGCCCUGCGCCGAGAAGGACAUGAGGAUCACCCAUGUAUGUUAUUAUCACGCGUGGCGCAU [Design 77] (Eterna round: R96, puzzle: Exclusion NG 1) ?
16.7

* * *

Test system: K4 kissing-loop RNA reporter;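 further: bound reporter read as fluorescence of individual clusters on recovered sequencing chips by microscopy, with normalized cluster intensities fitted with a binding model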
test.summary: apparent KD of K4 kissing-loop reporter; higher = weaker reporter binding
test.context: Eterna round: R107; input ligand: theophylline 20 uM
Decision: apparent KD of K4 kissing-loop reporter >= 300 nM yields y, all other cases yield n.

{"residue.string": "AUGCGUGAUGCUCAAAGAGUAUCACCCGAUACCAGUAUGGAAACAUACCCUUGGCAGCGGGUAACUGCCCAGUGAUGUUGGACGC [Theophylline A K4 10]", "class": "n"}
{"residue.string": "GCAGUGAUGUUGCGGAUGUACAGUGGCGUGCGAGGACCGGUACGGCCGCCACUCGUACAGAGCCAGCUAAUACAUCGAUUGGUGA [whbob_SS_Tryp_A_m7]", "class": "n"}
{"residue.string": "UGAUACCAGACGGCCGCCACUCCCGUAAGUCAAAGACUUACCAAGAGUAUCGUCCAGUGAUGUUGGAGGACCGGGUCUGGUAUCU [FiskerMod 9 - Jieux - Exclusion - Tryptophan B]", "class": "y"}
{"residue.string": "AGCUAGUACGCAGGAUAUUGAACAUCAUUUAGUGAGAUCGAGUGAUGUUCGAUCACGACUUCAGUUCGAGAAGGGCGUACUAGCA [#02 K4 FMN B Same State]", "class": "y"}

In the following, a different sequence is considered.
Does apparent KD of K4 kissing-loop reporter meet or surpass 300 nM for GUGAAGGAGCUGCAGUGAUGUUGCAGAAACUAGGAUAUCAGGAAACUGAGAAGGAGUCAACUCCUUCACCUAAAUACUGCAGAAA [KL-SSFMN-A23] ?
n

* * *

Measured apparent KD of MS2 coat protein values are reported for all entries that follow.
System: MS2 coat protein
test.summary: apparent KD of MS2 coat protein; designed switch direction (-1 OFF switch, 1 ON switch): -1; higher = weaker reporter binding
test.context: Eterna round: R95; input ligand: none
Only the number, expressed in nM, is required.

Answered examples (2):
{"residue.string": "ACAAGCUUUAGGCGUGUGAACAUGAGGAUCACCCAUGUAAAGUAGGUUAGGAGGUCUGUAAGGGAUGCUCGUCUUAU [JR_SWV3TOV1_Sub090] (puzzle: Sensor v3, turn-off variant 1)", "unit.symbol": "nM", "apparent KD of MS2 coat protein": 113}
{"residue.string": "GGUUGUUGUUUCCGUUCUUACAUGAGGAUCACCCAUGUUUCUUGUCGUGCUCGCGUUGCUCGUCUGGCUGCCUGUUG [salish99_TOv1_r3_070] (puzzle: Sensor v3, turn-off variant 1)", "unit.symbol": "nM", "apparent KD of MS2 coat protein": 54.4}

Here is another sequence to look at.
// lookup apparent KD of MS2 coat protein for UCUAGCUUUUUGCGUCAAGCAUUGAAGUCUGUGAUCGUAACAUGAGGAUCACCCAUGUAAGUUUUAUGUCGUCUUGU [JR_SV3TOV2_Sub098] (puzzle: Sensor v3, turn-off variant 2)
63.3
